- Measurement Target: T1, FZD10 CRD (Homo sapiens, UniProt Q9ULW2)
- T1 construct: 30-156; GPI anchor signal (C); expressed in transfected cells; host or cells: CHO cells, lentiviral pLenti-puro
- T1 sequence (Q9ULW2 30-156): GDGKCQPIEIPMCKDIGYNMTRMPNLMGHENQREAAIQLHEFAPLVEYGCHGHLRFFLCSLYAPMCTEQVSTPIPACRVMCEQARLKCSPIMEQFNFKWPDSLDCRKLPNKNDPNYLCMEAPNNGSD
- Experiment Summary: Immunofluorescence of anti-FZD5 Fab binding to CHO cells overexpressing Frizzled CRD
- Parameters: key: −: no binding; +: very weak binder; ++: weak binder; +++: good binder; ++++: very good binder
Value Kind: Immunofluorescence binding, Frizzled CRD overexpressed on CHO cells: FZD10

>  <Molecule>
Fab-2929: anti-FZD5 Fab with antibody variable region Fv-2929; CDR SEQ ID NOs: 35, 36, 68, 106, 144, 162 (antibody, V domains shown) VH: EVQLVESGGGLVQPGGSLRLSCAASGFNISYYYIHWVRQAPGKGLEWVASIYPSSSSTSYADSVKGRFTISADTSKNTAYLQMNSLRAEDTAVYYCARGAMDYWGQGTLVTVSS VL: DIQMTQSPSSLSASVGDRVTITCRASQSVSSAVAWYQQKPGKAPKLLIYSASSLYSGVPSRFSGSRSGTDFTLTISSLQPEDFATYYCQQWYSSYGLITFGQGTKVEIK

>  <Reported Result>
−

$$$$
>  <Molecule>
Fab-2900: anti-FZD5 Fab with antibody variable region Fv-2900; CDR SEQ ID NOs: 35, 36, 39, 78, 115, 153 (antibody, V domains shown) VH: EVQLVESGGGLVQPGGSLRLSCAASGFNLSSYYIHWVRQAPGKGLEWVASISSSSSSTSYADSVKGRFTISADTSKNTAYLQMNSLRAEDTAVYYCARGALDYWGQGTLVTVSS VL: DIQMTQSPSSLSASVGDRVTITCRASQSVSSAVAWYQQKPGKAPKLLIYSASSLYSGVPSRFSGSRSGTDFTLTISSLQPEDFATYYCQQWYSGSSLFTFGQGTKVEIK

>  <Reported Result>
−

$$$$
